subject_of_test: recombinant human HPK1 (Homo sapiens (Human), UniProt Q92918)
Sequence (Q92918 whole entry): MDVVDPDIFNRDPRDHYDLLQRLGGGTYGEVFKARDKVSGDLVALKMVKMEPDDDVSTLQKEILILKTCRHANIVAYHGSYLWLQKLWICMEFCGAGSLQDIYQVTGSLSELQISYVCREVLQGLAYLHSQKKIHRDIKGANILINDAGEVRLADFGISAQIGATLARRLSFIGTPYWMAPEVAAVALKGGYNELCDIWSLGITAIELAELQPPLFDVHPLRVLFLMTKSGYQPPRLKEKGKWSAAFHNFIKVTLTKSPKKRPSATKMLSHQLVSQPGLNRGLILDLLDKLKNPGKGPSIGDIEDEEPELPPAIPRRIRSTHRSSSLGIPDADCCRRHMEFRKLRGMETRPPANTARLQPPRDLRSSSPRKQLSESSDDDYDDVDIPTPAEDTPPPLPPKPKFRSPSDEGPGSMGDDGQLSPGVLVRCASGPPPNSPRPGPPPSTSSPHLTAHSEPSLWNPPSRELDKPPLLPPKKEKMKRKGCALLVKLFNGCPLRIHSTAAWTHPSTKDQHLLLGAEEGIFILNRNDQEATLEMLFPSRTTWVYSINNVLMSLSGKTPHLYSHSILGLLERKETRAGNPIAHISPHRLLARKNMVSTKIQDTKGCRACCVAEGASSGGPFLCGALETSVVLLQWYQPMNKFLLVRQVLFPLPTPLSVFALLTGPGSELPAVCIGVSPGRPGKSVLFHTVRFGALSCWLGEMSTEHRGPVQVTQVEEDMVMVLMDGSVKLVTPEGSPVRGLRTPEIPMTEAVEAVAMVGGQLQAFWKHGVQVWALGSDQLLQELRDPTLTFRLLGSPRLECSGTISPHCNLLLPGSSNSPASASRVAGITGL
procedure_text: HPK1 kinase assay (ADP-Glo)
Format: biochemical
test_conditions: 25 μM ATP, MBP substrate
pIC50: −log10 of the molar value.
observable: pIC50

Example cases with answers are listed next.
Cc1c(F)c(C(=O)O)c2[nH]ncc2c1-c1ccc2nc(NC(=O)[C@@H]3C[C@@H]3F)cn2c1 [Example 313] | < 6.00
O=C(Nc1nc2ccc(-c3cc(F)c(OC(F)(F)F)c4[nH]ncc34)nc2s1)[C@@H]1C[C@@H]1F [Example 215] | < 6.00

Which pIC50 is reported for this molecule? N#Cc1c(F)c(Cl)c(-c2ccc3nc(NC(=O)[C@@H]4C[C@@H]4F)cn3c2)c2cn[nH]c12 [Example 351] > 7.00

Which pIC50 is reported for this molecule? Nc1c(F)cc2[nH]ncc2c1-c1ccc2nc(NC(=O)[C@@H]3C[C@@H]3F)sc2n1 [Example 151] < 6.00
